Recorded Ratio, one value per entry.
- Target system: Sodium-dependent dopamine transporter (Rattus norvegicus) (UniProt P23977)
- Assay procedure: Ratio of ([3H]-DA uptake) / [3H]WIN-35428 binding was determined in […]
Reported property: Ratio

Structure	Reported property	Readout value
Fc1ccc(CN2CCC(CNCC(c3ccccc3)c3ccccc3)CC2)cc1	Ratio	2.5
CS(=O)(=O)Nc1ccc(CN2CCC(CCOC(c3ccccc3)c3ccccc3)CC2)cc1	Ratio	0.36
Fc1ccc(CN2CCC(CNOC(c3ccccc3)c3ccccc3)CC2)cc1	Ratio	0.48
Fc1ccc(CN2CCC(CCNC(c3ccccc3)c3ccccc3)CC2)cc1	Ratio	1.33

====

- Target system: Monoamine transporters; serotonin & dopamine (Rattus norvegicus) (UniProt P31652+P23977)
- Sequence (P23977 whole entry, looked up): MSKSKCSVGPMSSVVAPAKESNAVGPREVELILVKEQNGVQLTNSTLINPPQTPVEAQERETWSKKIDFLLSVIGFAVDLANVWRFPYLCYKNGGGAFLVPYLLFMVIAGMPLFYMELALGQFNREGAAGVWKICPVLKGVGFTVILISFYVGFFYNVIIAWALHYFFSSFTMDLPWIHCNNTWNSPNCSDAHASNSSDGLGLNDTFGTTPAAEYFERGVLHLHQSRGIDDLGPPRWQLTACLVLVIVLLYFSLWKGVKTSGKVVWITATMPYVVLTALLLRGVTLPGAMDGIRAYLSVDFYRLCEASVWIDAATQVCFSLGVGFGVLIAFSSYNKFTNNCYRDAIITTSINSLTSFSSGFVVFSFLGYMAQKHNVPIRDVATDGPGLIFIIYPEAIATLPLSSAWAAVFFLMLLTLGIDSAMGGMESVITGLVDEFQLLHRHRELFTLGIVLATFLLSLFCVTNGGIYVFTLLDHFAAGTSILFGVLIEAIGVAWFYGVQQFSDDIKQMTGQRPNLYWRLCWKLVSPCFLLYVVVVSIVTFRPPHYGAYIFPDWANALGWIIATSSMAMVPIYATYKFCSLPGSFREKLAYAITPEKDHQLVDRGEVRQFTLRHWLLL
- Sequence (P31652 whole entry, looked up): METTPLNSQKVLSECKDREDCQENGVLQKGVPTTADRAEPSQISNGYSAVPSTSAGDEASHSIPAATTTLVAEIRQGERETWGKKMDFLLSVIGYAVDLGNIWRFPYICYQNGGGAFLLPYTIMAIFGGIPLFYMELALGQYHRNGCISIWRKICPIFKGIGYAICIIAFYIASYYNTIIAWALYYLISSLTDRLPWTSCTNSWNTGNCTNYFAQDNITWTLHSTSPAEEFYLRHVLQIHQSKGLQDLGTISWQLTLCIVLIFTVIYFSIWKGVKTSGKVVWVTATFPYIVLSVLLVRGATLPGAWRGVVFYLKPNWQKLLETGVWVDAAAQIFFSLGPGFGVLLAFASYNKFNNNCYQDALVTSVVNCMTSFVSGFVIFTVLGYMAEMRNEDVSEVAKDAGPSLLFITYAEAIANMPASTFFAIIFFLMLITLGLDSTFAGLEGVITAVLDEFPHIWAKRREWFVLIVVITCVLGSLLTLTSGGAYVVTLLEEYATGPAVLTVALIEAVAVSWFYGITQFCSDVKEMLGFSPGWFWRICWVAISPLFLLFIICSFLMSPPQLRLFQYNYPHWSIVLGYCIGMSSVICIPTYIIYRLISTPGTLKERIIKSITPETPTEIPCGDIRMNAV
- Assay procedure: Selectivity for serotonin transporter compared to dopamine transporter.
- Type: protein assay
Parameter threshold = 30. Response is class 1 when Ratio meets or exceeds it, else class 0.

Structure	Classification
Fc1cccc(CN2CCC(CCOC(c3ccccc3)c3ccccc3)CC2)c1	class 1
Fc1ccc(CN2CCC(CCNC(c3ccccc3)c3ccccc3)CC2)cc1	class 1
N#Cc1ccc(CN2CCC(CCOC(c3ccccc3)c3ccccc3)CC2)cc1	class 1
Fc1ccc(CN2CCC(CNCC(c3ccccc3)c3ccccc3)CC2)cc1	class 0
FC(F)(F)c1ccc(CN2CCC(CCOC(c3ccccc3)c3ccccc3)CC2)cc1	class 1
CN(CC1CCN(Cc2ccc(F)cc2)CC1)CC(c1ccccc1)c1ccccc1	class 0
Fc1ccc(CN2CCC(CNOC(c3ccccc3)c3ccccc3)CC2)cc1	class 0
Fc1ccc(CN2CCC(CCOC(c3ccccc3)c3ccccc3)CC2)cc1F	class 1
CN(CCC1CCN(Cc2ccc(F)cc2)CC1)C(c1ccccc1)c1ccccc1	class 0

====

- Target system: Monoamine transporters; serotonin & dopamine (Rattus norvegicus) (UniProt P31652+P23977)
- Assay procedure: Selectivity for serotonin transporter compared to dopamine transporter.
- Assay type: protein assay
Parameter threshold = 20. Response is fulfilled when Ratio meets or exceeds it, else not fulfilled.

Molecule	Target system	Classification
CC(OCCC1CCN(Cc2ccc(F)cc2)CC1)c1ccccc1 (stereo unspecified)	Monoamine transporters; serotonin & dopamine (Rattus norvegicus) (UniProt P31652+P23977)	not fulfilled
Fc1ccc(C(NCC2CCN(CCc3ccccc3)CC2)c2ccc(F)cc2)cc1	Monoamine transporters; serotonin & dopamine (Rattus norvegicus) (UniProt P31652+P23977)	not fulfilled
CC(NCCC1CCN(Cc2ccc(F)cc2)CC1)c1ccccc1 (stereo unspecified)	Monoamine transporters; serotonin & dopamine (Rattus norvegicus) (UniProt P31652+P23977)	not fulfilled
O=C(Cc1ccccc1)N1CCC(CCOC(c2ccccc2)c2ccccc2)CC1	Monoamine transporters; serotonin & dopamine (Rattus norvegicus) (UniProt P31652+P23977)	not fulfilled
Fc1ccc(CN2CCC(CCOC(c3ccccc3)c3ccccc3)CC2)cc1	Monoamine transporters; serotonin & dopamine (Rattus norvegicus) (UniProt P31652+P23977)	fulfilled
CS(=O)(=O)Nc1ccc(CN2CCC(CCOC(c3ccccc3)c3ccccc3)CC2)cc1	Monoamine transporters; serotonin & dopamine (Rattus norvegicus) (UniProt P31652+P23977)	fulfilled

====

pIC50: −log10 of the molar value.
Endpoint: pIC50. System: Sodium-dependent serotonin transporter (Rattus norvegicus, UniProt P31652). Items follow.

Structure	pIC50
O=C(Cc1ccccc1)N1CCC(CCOC(c2ccccc2)c2ccccc2)CC1	4.88
CN(CCC1CCN(Cc2ccc(F)cc2)CC1)C(c1ccccc1)c1ccccc1	5.78

====

- Target system: Norepinephrine transporter (Rattus norvegicus, UniProt Q9WTR4)
- Sequence (Q9WTR4 whole entry): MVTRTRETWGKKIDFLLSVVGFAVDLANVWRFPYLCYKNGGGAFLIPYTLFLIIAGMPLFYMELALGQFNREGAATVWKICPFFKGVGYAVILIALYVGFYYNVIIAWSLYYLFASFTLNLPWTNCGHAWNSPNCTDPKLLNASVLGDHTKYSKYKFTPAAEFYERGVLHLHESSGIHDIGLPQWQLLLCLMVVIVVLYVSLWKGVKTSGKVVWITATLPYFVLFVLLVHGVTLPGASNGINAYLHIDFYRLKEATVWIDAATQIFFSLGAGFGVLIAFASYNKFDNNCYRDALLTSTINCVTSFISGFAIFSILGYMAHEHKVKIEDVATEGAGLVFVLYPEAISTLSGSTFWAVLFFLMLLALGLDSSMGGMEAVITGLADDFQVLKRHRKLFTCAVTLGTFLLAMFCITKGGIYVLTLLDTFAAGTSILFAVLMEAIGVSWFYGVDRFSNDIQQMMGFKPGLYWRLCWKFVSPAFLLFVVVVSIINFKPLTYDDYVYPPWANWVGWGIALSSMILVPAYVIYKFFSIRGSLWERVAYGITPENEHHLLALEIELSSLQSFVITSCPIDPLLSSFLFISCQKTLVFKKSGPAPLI
pIC50: −log10 of the molar value.
Parameter threshold = 6. Response is 1 when pIC50 meets or exceeds it, else -1.

Structure	Target system	Classification
c1ccc(CN2CCC(CCNC(c3ccccc3)c3ccccc3)CC2)cc1	Norepinephrine transporter (Rattus norvegicus, UniProt Q9WTR4)	-1
N#Cc1ccc(CN2CCC(CCOC(c3ccccc3)c3ccccc3)CC2)cc1	Norepinephrine transporter (Rattus norvegicus, UniProt Q9WTR4)	1

====

- Target system: Norepinephrine transporter (Rattus norvegicus)
So basically, if IC50 comes in under 1000 nM it's Met, and if it's 1000 nM or more it's Not met.

Structure	Classification
Fc1ccc(CN2CCC(CCOC(c3ccccc3)c3ccccc3)CC2)cc1F	Met
Fc1ccc(CN2CCC(CNCC(c3ccccc3)c3ccccc3)CC2)cc1	Not met
Fc1ccc(CN2CCC(CNOC(c3ccccc3)c3ccccc3)CC2)cc1	Met
Fc1ccc(CN2CCC(CCNC(c3ccccc3)c3ccccc3)CC2)cc1	Met

Origin of measurements: ChEMBL document CHEMBL1134376
